Tested on: blackgrass
PROCEDURE_DETAILS: Test C preemergence
Format: in vivo, Alopecurus myosuroides
ASSAY_CONTEXT: Test C, preemergence, 125 g ai/ha; 0 to 100 scale (0 no effect, 100 complete control)

{"columns": ["RECORD_SMILES", "TARGET_ENTITY", "Blackgrass plant response rating"],
 "data": [
  ["COC[C@H]1CN(C(=O)c2cc(-n3cnc(C4CCC4)n3)ccc2C)c2cccc(Cl)c2O1", "blackgrass", 20],
  ["COc1cc(C(=O)N2C[C@H](C)Oc3c(Cl)cccc32)cc(-n2cnc(C(C)(C)C)n2)c1", "blackgrass", 60],
  ["Cc1c(F)cc(-n2cnc(C(C)C)n2)cc1C(=O)N1C[C@H](C)Oc2c(Cl)cccc21", "blackgrass", 50],
  ["C[C@H]1CN(C(=O)c2cc(-n3cnc(C4CCC4)n3)cc3c2OCCO3)c2cccc(Cl)c2O1", "blackgrass", 30]
]}

====

# Lookup of reported Plant response rating, Foxtail, Giant keyed by entry
System: foxtail, giant
PROCEDURE_DETAILS: Test A preemergence
Assay type: in vivo, Setaria faberi
ASSAY_CONTEXT: 125 g ai/ha, visual injury after 10 days, 0 to 100 scale, 0 is no effect, 100 is complete control

{"columns": ["COMPOUND", "Plant response rating, Foxtail, Giant"],
 "data": [
  ["C[C@H]1CN(C(=O)c2cccc(-n3cnc(CC4CCCCC4)n3)c2)c2cccc(Cl)c2O1", 0],
  ["Cc1cccc2c1O[C@@H](C)CN2C(=O)c1cccc(-n2cnc(C3CCC3)n2)c1", 90],
  ["Cc1ccc(-n2cnc(C3CCC3)n2)cc1C(=O)N1C[C@H](C)Oc2c(C)cccc21", 100],
  ["Cc1c(C(=O)N2CC(C)Oc3c(Cl)cccc32)cccc1-n1cncn1 (centres unmarked)", 0],
  ["CCc1ncn(-c2ccc(C)c(C(=O)N3C[C@H](C)Oc4c(C)cccc43)c2)n1", 100],
  ["C[C@H]1CN(C(=O)c2cc(Br)cc(-n3cncn3)c2)c2cccc(Cl)c2O1", 80],
  ["CCc1cccc2c1OC(C)CN2C(=O)c1cccc(-n2cncn2)c1 (centres unmarked)", 60],
  ["CC(C)c1ncn(-c2ccc(OC(F)(F)F)c(C(=O)N3C[C@H](C)Oc4c(Cl)cccc43)c2)n1", 100]
]}

====

# Lookup of reported Plant response rating, Foxtail, Giant keyed by entry
Test system: foxtail, giant
PROCEDURE_DETAILS: Test A preemergence
Format: in vivo, Setaria faberi
ASSAY_CONTEXT: 500 g ai/ha, visual injury after 10 days, 0 to 100 scale, 0 is no effect, 100 is complete control
Source text: […]
MEASURED_PARAMETER: Plant response rating, Foxtail, Giant

{"columns": ["COMPOUND", "MEASURED_PARAMETER", "ENDPOINT_RESULT"],
 "data": [
  ["CC(C)c1ncn(-c2cc(C(=O)N3C[C@H](C)Oc4c(Cl)cccc43)c3ccccc3c2)n1 [Compound 146]", "Plant response rating, Foxtail, Giant", 100],
  ["Cc1nc(C)n(-c2cccc(C(=O)N3C[C@H](C)Oc4c(Cl)cccc43)c2)n1 [Compound 142]", "Plant response rating, Foxtail, Giant", 90],
  ["Cc1ccc(-n2cnc(C(C)(C)O)n2)cc1C(=O)N1C[C@H](C)Oc2c(Cl)cccc21 [Compound 149]", "Plant response rating, Foxtail, Giant", 100],
  ["C=CCOc1ccc(-n2cnc(C(C)C)n2)cc1C(=O)N1C[C@H](C)Oc2c(Cl)cccc21 [Compound 110]", "Plant response rating, Foxtail, Giant", 100]
]}

====

Test system: kochia
PROCEDURE_DETAILS: Test C postemergence
Assay type: in vivo, Bassia scoparia
ASSAY_CONTEXT: 500 g ai/ha, postemergence, 10 days, 0 to 100 scale (0 no effect, 100 complete control)
Text: […]
Quick rule for you: Plant response rating, Kochia under 80 gets true, anything else gets false.

{"columns": ["MOLECULE", "CATEGORY_LABEL"],
 "data": [
  ["Cc1ncn(-c2ccc(F)c(C(=S)N3C[C@H](C)Oc4c(C)cccc43)c2)n1 [Compound 362]", "false"],
  ["CC(C)(C)c1ncn(-c2cccc(C(=O)N3CC(C(F)(F)F)Oc4c(Cl)cccc43)c2)n1 (stereo not drawn) [Compound 353]", "true"],
  ["CSc1ccc(-n2cnc(C(C)C)n2)cc1C(=O)N1C[C@H](C)Oc2c(Cl)cccc21 [Compound 391]", "false"],
  ["CC(C)c1ncn(-c2cc(C(=O)N3CC(C(F)(F)F)Oc4c(Cl)cccc43)ccn2)n1 (single isomer, unassigned) [Compound 330]", "false"],
  ["CCc1cc(C(=O)N2C[C@H](C)Oc3c(Cl)cccc32)cc(-n2cncn2)c1 [Compound 332]", "true"],
  ["COc1ncn(-c2cccc(C(=O)N3C[C@H](C)Oc4c(C)cccc43)c2)n1 [Compound 307]", "true"],
  ["CCOCC1CN(C(=O)c2cc(-n3cnc(CC)n3)ccc2OC)c2cccc(Cl)c2O1 (stereo not drawn) [Compound 378]", "false"]
]}

====

Tested on: foxtail, giant
PROCEDURE_DETAILS: Test A postemergence
Assay type: in vivo, Setaria faberi
ASSAY_CONTEXT: 125 g ai/ha, postemergence, 10 days; 0 to 100 scale, 0 no effect, 100 complete control

{"columns": ["RECORD_SMILES", "Foxtail, Giant plant response rating"],
 "data": [
  ["CCc1ncn(-c2ccc(C)c(C(=O)N3C[C@H](C)Oc4c(C)cccc43)c2)n1", 90],
  ["CCOc1ccc(-n2cnc(C(C)C)n2)cc1C(=O)N1C[C@H](C)Oc2c(Cl)cccc21", 90],
  ["Cc1cccc2c1O[C@@H](C)CN2C(=O)c1cccc(-n2cnc(C3CCCCC3)n2)c1", 10],
  ["COCCc1ncn(-c2cccc(C(=O)N3C[C@H](C)Oc4c(C)cccc43)c2)n1", 60],
  ["Cc1ccc(-n2cnc(C3CCC3)n2)cc1C(=O)N1C[C@H](C)Oc2c(C)cccc21", 90],
  ["CC(C)c1ncn(-c2ccc(C#N)c(C(=O)N3C[C@H](C)Oc4c(Cl)cccc43)c2)n1", 90]
]}

====

Tested on: kochia
PROCEDURE_DETAILS: Test C preemergence
Assay type: in vivo, Bassia scoparia
ASSAY_CONTEXT: 500 g ai/ha, preemergence; 0 to 100 scale (0 no effect, 100 complete control)
MEASURED_PARAMETER: Kochia plant response rating

{"columns": ["COMPOUND", "MEASURED_PARAMETER", "ENDPOINT_RESULT"],
 "data": [
  ["COC[C@H]1CN(C(=O)c2cc(-n3cnc(C4CCC4)n3)ccc2C)c2cccc(Cl)c2O1", "Kochia plant response rating", 90],
  ["Cc1cccc2c1OC(C(F)(F)F)CN2C(=O)c1cccc(-n2cnc(C(C)C)n2)c1 (single isomer, unassigned)", "Kochia plant response rating", 80],
  ["Cc1cccc2c1O[C@@H](C)CN2C(=O)c1cccc(-n2cnc(N(C)S(C)(=O)=O)n2)c1", "Kochia plant response rating", 80],
  ["CC(C)c1ncn(-c2ccc(S(C)(=O)=O)c(C(=O)N3C[C@H](C)Oc4c(Cl)cccc43)c2)n1", "Kochia plant response rating", 90],
  ["Cc1cccc2c1OC(C(F)(F)F)CN2C(=O)c1ccnc(-n2cnc(C(C)C)n2)c1 (stereo not shown)", "Kochia plant response rating", 90],
  ["COc1ncn(-c2cccc(C(=O)N3C[C@H](C)Oc4c(Cl)cccc43)c2)n1", "Kochia plant response rating", 80],
  ["COC[C@H]1CN(C(=O)c2cc(-n3cnc(C(C)C)n3)ccc2OC)c2cccc(Cl)c2O1", "Kochia plant response rating", 100]
]}

====

Test system: corn
PROCEDURE_DETAILS: Test C postemergence
Type: in vivo, Zea mays
ASSAY_CONTEXT: 500 g ai/ha, postemergence, 10 days, 0 to 100 scale (0 no effect, 100 complete control)
From the text: […]
Tick Fulfilled if Plant response rating, Corn is 40 or greater. Tick Not fulfilled if Plant response rating, Corn is less than 40.

{"columns": ["COMPOUND", "CATEGORY_LABEL"],
 "data": [
  ["CNc1ncn(-c2cccc(C(=O)N3C[C@H](C)Oc4c(C)cccc43)c2)n1", "Fulfilled"],
  ["CC(=O)c1ncn(-c2ccc(C)c(C(=O)N3C[C@H](C)Oc4c(Cl)cccc43)c2)n1", "Fulfilled"],
  ["Cc1cccc2c1OC(C(F)(F)F)CN2C(=O)c1ccnc(-n2cnc(C(C)(C)C)n2)c1 (stereo not shown)", "Fulfilled"],
  ["CCOC[C@H]1CN(C(=O)c2cc(-n3cnc(C(C)C)n3)cc3c2OCCO3)c2cccc(Cl)c2O1", "Fulfilled"],
  ["Cc1cccc2c1O[C@@H](C)CN2C(=O)c1cccc(-n2cnc(N(C)S(C)(=O)=O)n2)c1", "Not fulfilled"],
  ["CCOC[C@H]1CN(C(=O)c2cc(-n3cnc(C(C)C)n3)cc3c2OCO3)c2cccc(Cl)c2O1", "Fulfilled"],
  ["CCOC[C@H]1CN(C(=O)c2cc(-n3cnc(C4CCC4)n3)cc3c2OCO3)c2cccc(Cl)c2O1", "Not fulfilled"],
  ["Cc1cccc2c1OC(C(F)(F)F)CN2C(=O)c1cccc(-n2cnc(C(C)(C)C)n2)c1 (stereo not shown)", "Not fulfilled"],
  ["CC(=O)N(C)c1ncn(-c2cccc(C(=O)N3C[C@H](C)Oc4c(C)cccc43)c2)n1", "Fulfilled"],
  ["COC[C@H]1CN(C(=O)c2cc(-n3cnc(C4CCC4)n3)cc3c2OCCO3)c2cccc(Cl)c2O1", "Fulfilled"],
  ["Cc1ccc(-n2cnc(C#N)n2)cc1C(=O)N1C[C@H](C)Oc2c(Cl)cccc21", "Not fulfilled"],
  ["CCOC(=O)c1ncn(-c2ccc(C)c(C(=O)N3C[C@H](C)Oc4c(Cl)cccc43)c2)n1", "Fulfilled"],
  ["COC(C)c1ncn(-c2ccc(C)c(C(=O)N3CC(C)Oc4c(Cl)cccc43)c2)n1 (mixture of isomers)", "Fulfilled"],
  ["CCc1ncn(-c2cc(C(=O)N3CC(C(F)(F)F)Oc4c(C)cccc43)ccn2)n1 (stereo not shown)", "Fulfilled"],
  ["CC(C)c1ncn(-c2cccc(C(=O)N3CC(C(F)(F)F)Oc4c(Cl)cccc43)c2)n1 (single isomer, unassigned)", "Not fulfilled"],
  ["CSc1ccc(-n2cnc(C(C)C)n2)cc1C(=O)N1C[C@H](C)Oc2c(Cl)cccc21", "Fulfilled"],
  ["Cc1ncc(-c2cccc(C(=O)N3C[C@H](C)Oc4c(Cl)cccc43)c2)o1", "Not fulfilled"],
  ["CCOC[C@H]1CN(C(=O)c2cc(-n3cnc(CC)n3)ccc2C)c2cccc(Cl)c2O1", "Not fulfilled"],
  ["Cc1cccc2c1O[C@@H](C)CN2C(=O)c1cccc(-n2cnc(-c3ccccc3)n2)c1", "Not fulfilled"],
  ["CC(C)c1cc(C(=O)N2C[C@H](C)Oc3c(Cl)cccc32)cc(-n2cncn2)c1", "Fulfilled"],
  ["Cc1ccc(-n2cnc(C3(C#N)CC3)n2)cc1C(=O)N1C[C@H](C)Oc2c(Cl)cccc21", "Fulfilled"],
  ["Cc1cccc2c1O[C@@H](C)CN2C(=O)c1cccc(-n2cnc(C#C[Si](C)(C)C)n2)c1", "Not fulfilled"],
  ["CC(C)(C)c1ncn(-c2cc(C(=O)N3CC(C(F)(F)F)Oc4c(Cl)cccc43)ccn2)n1 (stereo not shown)", "Not fulfilled"],
  ["Cc1ncn(-c2cccc(C(=O)N3C[C@H](C)Oc4c(Cl)cccc43)c2)n1", "Fulfilled"]
]}
